System: BT-474 Tam2
Assay: viability inhibition at highest dose (% inhibition); higher = more growth inhibition
Details: 4-OH-tamoxifen in medium 1 µM; 72 h
OBSERVABLE: viability inhibition at highest dose

Q: Record COc1cc(Nc2ncc3c(n2)-c2ccc(Cl)cc2C(c2c(F)cccc2OC)=NC3)ccc1C(=O)O [Alisertib (MLN8237)] (drug 10000 nM) : what is its viability inhibition at highest dose with BT-474 Tam2?
A: -5.31

Q: What reported viability inhibition at highest dose corresponds to C[C@@H]1CCN(C(=O)CC#N)C[C@@H]1N(C)c1ncnc2[nH]ccc12 [Tofacitinib (Tasocitinib)] (drug 5000 nM) on BT-474 Tam2?
A: -10.5

Q: Report viability inhibition at highest dose for CCS(=O)(=O)c1cccc(-c2cc(C(=O)NC3CCN(C)CC3)c(C)c3[nH]c4ncc(C)cc4c23)c1 [TAK-901] (drug 1000 nM) tested on BT-474 Tam2.
A: 25.1

Q: So what viability inhibition at highest dose did O=C(/C=C/c1cccc(S(=O)(=O)Nc2ccccc2)c1)NO [Belinostat (PXD101)] (drug 10000 nM) get with BT-474 Tam2?
A: 77.2

Q: Any idea what viability inhibition at highest dose came out for CC(C)C[C@@H](C(=O)N[C@H](C(=O)OC1CCCC1)c1ccccc1)[C@H](O)C(=O)NO [Tosedostat (CHR 2797)] (drug 10000 nM) on BT-474 Tam2?
A: 28.5
